molecular target: Endothelial PAS domain-containing protein 1 (Homo sapiens); experiment: HIF-2a and HIF-1a reporter inhibition panel, dose response, selectivity assay for HIF-2a inhibitor project, cell-based, luminescence (AID 651581); conditions: HIF-2a, run 2
pIC50: −log10 of the molar value.
# pIC50 per entry

INSERT INTO measurements (sample_smiles, measured_target, value_observed) VALUES
  ('N#Cc1c(NC(=O)CSc2ncn[nH]2)sc2c1CCCCC2', 'Endothelial PAS domain-containing protein 1 (Homo sapiens)', '> 6.52'),
  ('CC(C)(C)c1ccc(-c2noc(CCC(=O)NCc3ccco3)n2)cc1', 'Endothelial PAS domain-containing protein 1 (Homo sapiens)', '> 6.00'),
  ('CCOC(=O)c1cccc(NC(=O)Nc2ccc(OCC)cc2)c1', 'Endothelial PAS domain-containing protein 1 (Homo sapiens)', '> 5.00');

Input line: Requested read-out: pIC50. Entry: `N#Cc1c(NC(=O)CCCC(=O)O)sc2c1CCCCC2`
Output line: > 6.72

---

# IC50 per entry
target: Endothelial PAS domain-containing protein 1 (Homo sapiens) (UniProt Q99814); experiment: HIF-2a and HIF-1a reporter inhibition panel, dose response, selectivity assay for HIF-2a inhibitor project, cell-based, luminescence (AID 651581); details: HIF-2a PANC, run 1

Worked examples follow.
INSERT INTO measurements (sample_smiles, value_observed) VALUES
  ('CCOc1cc(/C=N/Nc2cccc(C(=O)O)c2)ccc1OC(=O)c1ccccc1', '> 99 µM'),
  ('Cc1ccc(S(=O)(=O)ON2C(=O)c3ccccc3C2=O)c(C)c1', '> 99 µM');

Field: next compound
Input line: Requested read-out: IC50. Entry: `Cn1ncc2c(O/N=C(\N)c3ccc(C(C)(C)C)cc3)ncnc21`
Output line: < 30 µM

---

biological target: Hypoxia-inducible factor 1-alpha (Homo sapiens) (UniProt Q16665); assay: HIF-2a and HIF-1a reporter inhibition panel, dose response, selectivity assay for HIF-2a inhibitor project, cell-based, luminescence (AID 651581); settings: HIF-1a, run 1
Sequence (Q16665 whole entry, looked up): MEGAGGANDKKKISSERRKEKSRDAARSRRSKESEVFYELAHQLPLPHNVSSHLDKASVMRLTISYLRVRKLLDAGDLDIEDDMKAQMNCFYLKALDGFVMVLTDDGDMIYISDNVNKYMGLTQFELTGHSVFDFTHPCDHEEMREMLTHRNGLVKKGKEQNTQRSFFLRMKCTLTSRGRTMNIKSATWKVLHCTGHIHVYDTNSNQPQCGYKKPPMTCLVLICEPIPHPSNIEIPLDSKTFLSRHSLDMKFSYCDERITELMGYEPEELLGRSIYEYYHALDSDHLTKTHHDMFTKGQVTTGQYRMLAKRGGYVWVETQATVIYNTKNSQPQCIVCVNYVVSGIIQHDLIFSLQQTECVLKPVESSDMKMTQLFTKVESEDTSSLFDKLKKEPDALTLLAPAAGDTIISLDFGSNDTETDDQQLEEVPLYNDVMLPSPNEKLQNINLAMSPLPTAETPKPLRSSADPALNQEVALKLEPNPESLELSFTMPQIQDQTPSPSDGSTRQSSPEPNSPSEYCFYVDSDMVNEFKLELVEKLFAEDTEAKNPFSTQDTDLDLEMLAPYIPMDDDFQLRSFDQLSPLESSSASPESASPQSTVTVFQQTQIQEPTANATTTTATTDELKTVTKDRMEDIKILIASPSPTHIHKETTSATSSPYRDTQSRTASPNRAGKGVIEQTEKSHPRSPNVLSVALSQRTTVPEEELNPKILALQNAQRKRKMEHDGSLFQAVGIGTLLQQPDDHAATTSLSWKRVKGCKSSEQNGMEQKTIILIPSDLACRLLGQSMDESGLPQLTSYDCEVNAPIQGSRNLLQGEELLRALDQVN
quantity.name: pIC50
In plain terms, pIC50 is the concentration in mol/L turned into minus its base-10 logarithm.

Worked examples follow.
INSERT INTO results (compound, quantity_name, value_observed) VALUES
  ('O=C(Nc1ccccc1)c1nnsc1S(=O)(=O)c1ccc(Cl)cc1', 'pIC50', 4.57),
  ('COc1ccc(C(=O)/C=C/C(=O)N(CC(=O)NCCC(C)C)Cc2cccs2)c(O)c1', 'pIC50', 5.02),
  ('COc1ccc(CNC(=O)c2nc(S(=O)(=O)Cc3ccccc3)ncc2Cl)cc1', 'pIC50', 4.55),
  ('O=C(CCCSc1nc2ccccc2s1)NC1=NCCS1', 'pIC50', 4.82),
  ('O=[N+]([O-])C1C(c2ccccc2)C12c1ccccc1-c1ccccc12 (centres undefined)', 'pIC50', 4.38),
  ('CC(=O)Nc1ccc(NC(=O)c2oc3cc(C)c(C)cc3c2C)cc1', 'pIC50', 5.54),
  ('Cc1nc(SCc2cccc(C(=O)O)c2)nc2c1CCCC2', 'pIC50', 5.41),
  ('CCOC(=O)c1cc(-c2csc(-c3ccc(C(C)(C)C)cc3)n2)on1', 'pIC50', 4.16);

Input line: Requested read-out: pIC50. Entry: `Cc1c(CCC(=O)N2CCC[C@H]2C(=O)O)c(=O)oc2c(C)c3oc4c(c3cc12)CCCC4`
Output line: 4.14

Input line: Requested read-out: pIC50. Entry: `O=C(Nc1ccc(Cl)cc1Cl)c1cccc(N2C(=O)C=CC2=O)c1`
Output line: 4.32

Input line: Requested read-out: pIC50. Entry: `Cc1csc(NC(=O)CCc2c(C)nc3cc(-c4ccc(Cl)cc4)nn3c2C)n1`
Output line: 6.31

Input line: Requested read-out: pIC50. Entry: `CCOC(=O)C1CCN(C(=O)CCc2c(C)nc3cc(-c4ccccc4)nn3c2C)CC1`
Output line: 4.90

Input line: Requested read-out: pIC50. Entry: `Cc1c(CCC(=O)O)c(=O)oc2cc3oc4c(c3cc12)CCCC4`
Output line: 5.94

---

target: Hypoxia-inducible factor 1-alpha (Homo sapiens) (UniProt Q16665); assay: HIF-2a and HIF-1a reporter inhibition panel, dose response, selectivity assay for HIF-2a inhibitor project, cell-based, luminescence (AID 651581); conditions: HIF-1a, mean of runs
Activity calls are given as the source filed them. How the calls were made is not given here.
quantity.name: IC50

INSERT INTO assay_data (molecule, value_observed) VALUES
  ('Cc1nc2cc(-c3ccccc3)nn2c(C)c1CCC(=O)N1CCN(c2ccccc2)CC1', '8.15 µM'),
  ('COc1ccc(-c2cnc3c(NC=O)cc(-c4cccc(NS(C)(=O)=O)c4)cn23)cc1OC', 'inactive'),
  ('Cc1c(CCC(=O)O)c(=O)oc2cc(OCc3ccccc3Br)ccc12', 'inactive'),
  ('COc1ccc(CNC(=O)c2nc(S(=O)(=O)Cc3ccccc3)ncc2Cl)cc1', '27 µM'),
  ('NCCN1C(=O)S/C(=C\c2ccc3c(c2)OCO3)C1=O', '5.89 µM');

Input line: Requested read-out: IC50. Entry: `CS(=O)(=O)c1ccc(-c2cn3cc(C(=O)O)ccc3n2)cc1`
Output line: > 99 µM (inactive)

Input line: Requested read-out: IC50. Entry: `O=C(Nc1ccc(NC(=O)c2cccs2)cc1)c1ccc2c(c1)OCCO2`
Output line: > 99 µM (inactive)

Input line: Requested read-out: IC50. Entry: `CSC(SC)=C(C#N)C(=O)c1ccccc1`
Output line: 26.2 µM

Input line: Requested read-out: IC50. Entry: Cc1nc2cc(-c3ccccc3)nn2c(C)c1CCC(=O)NC(C)c1ccc2c(c1)OCCO2 (stereo unspecified)
Output line: 24.3 µM

Input line: Requested read-out: IC50. Entry: `Cc1nc(SCc2ccc(C(=O)O)cc2)nc2c1CCCC2`
Output line: inactive

Input line: Requested read-out: IC50. Entry: `CCS(=O)(=O)c1ncc(Cl)c(C(=O)Nc2ccc(C)cc2)n1`
Output line: inactive

---

target: Endothelial PAS domain-containing protein 1 (Homo sapiens) (UniProt Q99814); experiment: HIF-2a and HIF-1a reporter inhibition panel, dose response, selectivity assay for HIF-2a inhibitor project, cell-based, luminescence (AID 651581); settings: HIF-2a, run 2
# pIC50 per entry
In plain terms, pIC50 is the concentration in mol/L turned into minus its base-10 logarithm.

Worked examples follow.
INSERT INTO results (sample_smiles, value_observed) VALUES
  ('COc1cccc(C(=O)C(C#N)=C(SC)SC)c1', 5.25),
  ('COCCn1c(C)cc(C(=O)CSc2nnc(C)s2)c1C', 5.26),
  ('O=C(O)COc1ccc(-c2nccc(-c3ccccn3)n2)cc1', 5.99);

Input line: Record lookup: for Endothelial PAS domain-containing protein 1 (Homo sapiens) (UniProt Q99814), what pIC50 belongs to `O=C(NCc1ccccc1)C(=O)Nc1cccc(C(=O)O)c1` ?
Output line: 5.00

Input line: Record lookup: for Endothelial PAS domain-containing protein 1 (Homo sapiens) (UniProt Q99814), what pIC50 belongs to `Nc1ccc2oc(-c3cc(Br)ccc3Cl)nc2c1` ?
Output line: 5.95

Input line: Record lookup: for Endothelial PAS domain-containing protein 1 (Homo sapiens) (UniProt Q99814), what pIC50 belongs to `Cc1nnnn1/C(=C\c1ccccc1)C(=O)OCC(=O)Nc1cccc(S(=O)(=O)N(C)C)c1` ?
Output line: 5.05

Input line: Record lookup: for Endothelial PAS domain-containing protein 1 (Homo sapiens) (UniProt Q99814), what pIC50 belongs to `COC(=O)COc1ccc(-c2nccc(-c3ccc(Br)cc3)n2)cc1` ?
Output line: 5.13

Input line: Record lookup: for Endothelial PAS domain-containing protein 1 (Homo sapiens) (UniProt Q99814), what pIC50 belongs to `COc1ccc(OCc2cccc(C(=O)Nn3cc([N+](=O)[O-])cn3)c2)cc1` ?
Output line: 5.04

Input line: Record lookup: for Endothelial PAS domain-containing protein 1 (Homo sapiens) (UniProt Q99814), what pIC50 belongs to `CCOC(=O)Cc1csc(NC(=S)NC(=O)c2ccccc2C)n1` ?
Output line: 4.84

Input line: Record lookup: for Endothelial PAS domain-containing protein 1 (Homo sapiens) (UniProt Q99814), what pIC50 belongs to `O=C1C=CC(=O)N1c1cccc(-c2ccccc2)c1` ?
Output line: 5.08

---

biological target: Endothelial PAS domain-containing protein 1 (Homo sapiens); experiment: HIF-2a and HIF-1a reporter inhibition panel, dose response, selectivity assay for HIF-2a inhibitor project, cell-based, luminescence (AID 651581); conditions: HIF-2a PANC, run 1
pIC50: −log10 of the molar value.
# pIC50 per entry

Worked examples follow.
INSERT INTO measurements (sample_smiles, measured_target, quantity_name, value_observed) VALUES
  ('COC(=O)c1ccc(C(=O)OC)c(-n2c(=O)c3ccccc3c3ccccc3c2=O)c1', 'Endothelial PAS domain-containing protein 1 (Homo sapiens)', 'pIC50', '< 4.00'),
  ('CC(=O)/C=C1/C(=O)Nc2ccccc21', 'Endothelial PAS domain-containing protein 1 (Homo sapiens)', 'pIC50', '< 4.00');

Input line: Requested read-out: pIC50. Entry: `O=Cc1ccc(-c2cccs2)s1`
Output line: < 4.00

Input line: Requested read-out: pIC50. Entry: `Cc1nn(-c2ccccc2Cl)c(Cl)c1/C=N/Nc1cccc(C(=O)O)c1`
Output line: < 4.00
